Assay: Primary qHTS to identify inhibitors of SARS-CoV-2 cell entry (AID 1645846)
Details: SARS-CoV-2 pseudovirus cell entry assay, luminescence; at 57.1 µM (top of the series) unless noted
Results filed as inconclusive are left out.
Decision: activity change, negative = inhibition >= -20% yields Satisfied, all other cases yield Not satisfied.

Solved entries (count: 3):
molecule=C=C1c2cccc(O)c2C(O)=C2C(=O)[C@@]3(O)C(O)=C(C(N)=O)C(=O)[C@@H](N(C)C)[C@@H]3[C@@H](O)[C@H]12 answer_label=Satisfied
molecule=COc1ccc(C=Cc2cc(OC)c(OC)c(OC)c2)cc1NC(=O)[C@H](N)CO answer_label="Not satisfied"
molecule=O=c1oc2cc(O)ccc2s1 answer_label=Satisfied

[Q] Dear colleague, could you confirm whether Cc1ccccc1C(C(=O)NC1CCCCC1)N(C(=O)CNc1ccc(C#N)cc1)c1cccc(F)c1 (stereo unspecified) has activity change, negative = inhibition at or above -20%?
[A] Satisfied

[Q] Dear colleague, could you confirm whether CCNCc1nc2c(N)nc3ccccc3c2n1CC(C)(C)O has activity change, negative = inhibition at or above -20%?
[A] Not satisfied

[Q] Dear colleague, could you confirm whether CCCCCCCC(=O)O has activity change, negative = inhibition at or above -20%?
[A] Satisfied

[Q] Dear colleague, could you confirm whether N[C@@H](Cc1ccc(O)c(O)c1)C(=O)O has activity change, negative = inhibition at or above -20%?
[A] Not satisfied

[Q] Dear colleague, could you confirm whether CCc1c2c(nc3ccc(O)cc13)-c1cc3c(c(=O)n1C2)COC(=O)[C@]3(O)CC has activity change, negative = inhibition at or above -20%?
[A] Not satisfied

[Q] Dear colleague, could you confirm whether Nc1cccc2c1C(=O)N(C1CCC(=O)NC1=O)C2=O (stereo unspecified) has activity change, negative = inhibition at or above -20%?
[A] Satisfied

###

Test system: KB-3-1
Assay: Cytotoxic Profiling of Annotated Libraries Using Quantitative High-Throughput Screening (AID 1296008); further: on the % scale 0 is the no-effect control and ±100 the full control effect
Conditions: Five cell lines viability, CellTiter-Glo ATP luminescence, 48-72 h; stronger effect = lower value
Results filed as inconclusive are left out.
We begin with a simple list: items and their reported max response.
Please respond with the number in % and leave the unit unwritten.

Solved cases (4 shown):
molecule="CCN1C[C@]2(COC)CC[C@H](O)[C@@]34C5C[C@@H]6[C@@H](OC)C[C@@](OC(C)=O)(C5[C@@H]6OC(C)=O)[C@H]([C@H](OC)C23)[C@@H]14 (stereo not given in full)" reported_endpoint="max response" val=-0.111
molecule=COc1cc(C[C@H](C)N)c(OC)cc1C reported_endpoint="max response" val=-5.3
molecule="C=C1C2(C)CC3C(C)(O)C4=CC(=O)OC(C)(C)C4=CCC3(C)C13C(=O)OC(C)C3(O)C2=O (stereo not given)" reported_endpoint="max response" val=-10.5
molecule="CCOC(=O)c1ccnc2cc(C(OCCN3CCCCC3)c3ccccc3Cl)sc12 (stereo not given)" reported_endpoint="max response" val=5.4

[Q] Item CC1(C)C(=O)N(c2ccc(C#N)c(C(F)(F)F)c2)C(=S)N1c1ccc(C(N)=O)c(F)c1 has what recorded max response?
[A] -16.1

[Q] Item CN1CC[C@@]23CCCC[C@@H]2[C@@H]1Cc1ccc(O)cc13 has what recorded max response?
[A] -20.8

[Q] Item C[C@H]1CN(CC[C@H](O)C2CCCCC2)CC[C@@]1(C)c1cccc(O)c1 has what recorded max response?
[A] -5.46

[Q] Item C=C1C[C@]2(O)[C@@]3(C)CCC(=O)C(C)(C)C3=C(O)C(=O)[C@@]2(C)[C@@H]2C(=O)O[C@@](C)(C(=O)OC)C(=O)[C@@]12C has what recorded max response?
[A] 1.74

[Q] Item CN1C(=O)[C@]23CC4C(C)(C)[C@@]5(C[C@@]41CN2CC[C@@]3(C)O)C(=O)Nc1c5ccc2c1OC=CC(C)(C)O2 (stereo not given in full) has what recorded max response?
[A] 1.88

[Q] Item CCc1cc(OC)c(C[C@@H](C)N)cc1OC has what recorded max response?
[A] -13.5
